# assay_text: in vivo
# experimental_conditions: Balb/c nu/nu, mouse, liver, 48 pmol, total radioactivity
endpoint_name: tissue uptake at 1 h (%ID/g)

>>> meas_value("CC1=NNC(c2ccc(CNC(=O)c3ccc(F)nc3)cc2)=C2CCC[C@H](OC(=O)NCCOCCOCCC(=O)N[C@H](Cc3ccccc3)C(=O)N[C@@H](CCC(N)=O)C(=O)N[C@@H](Cc3c[nH]c4ccccc34)C(=O)N[C@@H](C)C(=O)N[C@H](C(=O)NCC(=O)N[C@@H](Cc3c[nH]cn3)C(=O)N[C@@H](CC(C)C)[C@@H](O)CC(=O)N[C@@H](CC(C)C)C(N)=O)C(C)C)CCC12 (stereo partly shown)")
12
